test system: Bacillus subtilis; assay: Antibacterial activity against Bacillus subtilis 168 ATCC 23857 after 48 hrs by microdilution method; format: functional; settings: subsp. subtilis str. 168 ATCC 23857, 48 h
test_readout: MIC (µg/mL)

- cpd_smiles: "Cl.N=C(N)NCCNC(=O)c1ccc(NS(=O)(=O)c2cc(C(F)(F)F)cc(C(F)(F)F)c2)cc1"
  test_readout: "MIC"
  sign_qualifier: ">"
  value: 128
- cpd_smiles: "CC(C)(C)c1cc(C(C)(C)C)cc(S(=O)(=O)NCCCCNC(=N)N)c1.Cl"
  test_readout: "MIC"
  sign_qualifier: "="
  value: 16
- cpd_smiles: "CC(C)(C)c1cc(C(C)(C)C)cc(S(=O)(=O)Nc2ccccc2C(=O)NCCNC(=N)N)c1.Cl"
  test_readout: "MIC"
  sign_qualifier: "="
  value: 8
- cpd_smiles: "CN(c1ccc(C(=O)NCCN)cc1)S(=O)(=O)c1cc(C(C)(C)C)cc(C(C)(C)C)c1.Cl"
  test_readout: "MIC"
  sign_qualifier: "="
  value: 8
- cpd_smiles: "CC(C)(C)c1cc(C(C)(C)C)cc(S(=O)(=O)Nc2ccc(C(=O)NCCNC(=N)N)cc2)c1.Cl"
  test_readout: "MIC"
  sign_qualifier: "="
  value: 8
- cpd_smiles: "CC(C)(C)c1cc(C(C)(C)C)cc(S(=O)(=O)NCc2ccc(C(=O)NCCNC(=N)N)cc2)c1.Cl"
  test_readout: "MIC"
  sign_qualifier: "="
  value: 8
- cpd_smiles: "CN(c1ccc(C(=O)NCCNC(=N)N)cc1)S(=O)(=O)c1cc(C(C)(C)C)cc(C(C)(C)C)c1.Cl"
  test_readout: "MIC"
  sign_qualifier: "="
  value: 4
- cpd_smiles: "CN(c1cccc(C(=O)NCCN)c1)S(=O)(=O)c1cc(C(C)(C)C)cc(C(C)(C)C)c1.Cl"
  test_readout: "MIC"
  sign_qualifier: "="
  value: 8
- cpd_smiles: "CC(C)(C)c1cc(C(C)(C)C)cc(S(=O)(=O)Nc2ccc(C(=O)NCCN)cc2)c1.Cl"
  test_readout: "MIC"
  sign_qualifier: "="
  value: 16

----------
test system: Staphylococcus aureus; assay: Antibacterial activity against Staphylococcus aureus ATCC 9144 after 48 hrs by microdilution method; assay type: functional; conditions: ATCC 9144, 48 h
In this section, each of the compounds is paired with its reported MIC.

- cpd_smiles: "CC(C)(C)c1cc(C(C)(C)C)cc(S(=O)(=O)N2CCC[C@H]2C(=O)NCCNC(=N)N)c1.Cl"
  test_system: "Staphylococcus aureus"
  MIC, µg/mL: 64
- cpd_smiles: "Cl.N=C(N)NCCNC(=O)c1ccc(NS(=O)(=O)c2ccc3ccccc3c2)cc1"
  test_system: "Staphylococcus aureus"
  MIC, µg/mL: 64
- cpd_smiles: "Cc1cc(C)cc(S(=O)(=O)Nc2ccc(C(=O)NCCNC(=N)N)cc2)c1.Cl"
  test_system: "Staphylococcus aureus"
  MIC, µg/mL: 128
- cpd_smiles: "CC(C)(C)c1cc(C(C)(C)C)cc(S(=O)(=O)Nc2ccccc2C(=O)NCCN)c1.Cl"
  test_system: "Staphylococcus aureus"
  MIC, µg/mL: 32
- cpd_smiles: "CC(C)(C)c1cc(C(C)(C)C)cc(S(=O)(=O)NCc2ccc(C(=O)NCCNC(=N)N)cc2)c1.Cl"
  test_system: "Staphylococcus aureus"
  MIC, µg/mL: 16
